- testSystem: TgFPPS (Toxoplasma gondii, UniProt Q197X6)
- Construct: gene FPPS; bifunctional enzyme making FPP and GGPP; enzyme assay as in Szajnman et al., 2008
- Sequence (Q197X6 1-646): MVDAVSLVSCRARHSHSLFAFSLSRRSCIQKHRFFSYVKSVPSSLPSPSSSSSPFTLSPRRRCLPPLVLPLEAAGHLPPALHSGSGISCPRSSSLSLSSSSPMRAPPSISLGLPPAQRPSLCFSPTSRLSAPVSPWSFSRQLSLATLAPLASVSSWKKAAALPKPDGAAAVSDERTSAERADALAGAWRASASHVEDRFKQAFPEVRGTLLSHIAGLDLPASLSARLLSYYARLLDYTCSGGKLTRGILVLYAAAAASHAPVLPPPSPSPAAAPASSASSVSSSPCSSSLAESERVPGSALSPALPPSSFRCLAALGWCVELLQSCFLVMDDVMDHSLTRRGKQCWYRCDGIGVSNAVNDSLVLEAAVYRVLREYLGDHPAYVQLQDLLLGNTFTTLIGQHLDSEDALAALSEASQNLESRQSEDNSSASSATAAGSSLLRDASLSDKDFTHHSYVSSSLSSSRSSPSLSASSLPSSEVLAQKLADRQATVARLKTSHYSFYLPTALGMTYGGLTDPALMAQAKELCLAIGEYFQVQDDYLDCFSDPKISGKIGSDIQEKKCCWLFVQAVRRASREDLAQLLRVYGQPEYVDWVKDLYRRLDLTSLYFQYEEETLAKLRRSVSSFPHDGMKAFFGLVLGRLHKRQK
- assayOverview: FPPS enzymatic activity assay
- Type: biochemical
pIC50: −log10 of the molar value.
recordedEndpoint: pIC50

- inputSmiles: "CCCCNCC(F)(P(=O)(O)O)P(=O)(O)O"
  testSystem: "TgFPPS (Toxoplasma gondii, UniProt Q197X6)"
  recordedEndpoint: "pIC50"
  measurement: 7.04
- inputSmiles: "CC(C)=CCC/C(C)=C/CSCC(P(=O)(O)O)P(=O)(O)O"
  testSystem: "TgFPPS (Toxoplasma gondii, UniProt Q197X6)"
  recordedEndpoint: "pIC50"
  measurement: 6.50
- inputSmiles: "C=C(C)CNCC(P(=O)(O)O)P(=O)(O)O"
  testSystem: "TgFPPS (Toxoplasma gondii, UniProt Q197X6)"
  recordedEndpoint: "pIC50"
  measurement: 6.74
